Data provenance: patent US12331038B2

molecular target: KHK-C (Homo sapiens (Human)); assay: Inhibitory activity against KHK-C kinase in vitro (ADP-Glo), Experimental Protocol I; type: biochemical; conditions: 1 nM KHK-C, 100 μM ATP, 200 μM D-Fructose, control drug top concentration 10000 nM
Sequence (P50053 whole entry): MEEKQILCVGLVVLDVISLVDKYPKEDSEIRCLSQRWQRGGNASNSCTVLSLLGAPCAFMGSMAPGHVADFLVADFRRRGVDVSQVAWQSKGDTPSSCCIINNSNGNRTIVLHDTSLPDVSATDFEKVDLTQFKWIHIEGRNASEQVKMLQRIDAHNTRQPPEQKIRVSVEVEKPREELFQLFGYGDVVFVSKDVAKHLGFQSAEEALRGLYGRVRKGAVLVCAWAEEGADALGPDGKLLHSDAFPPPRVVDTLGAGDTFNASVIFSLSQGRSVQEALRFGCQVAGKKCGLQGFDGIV
metric.name: IC50 (nM)

C[C@H]1CCN1c1nc(N2C[C@@H]3[C@@H](CC(=O)O)[C@@H]3C2)c2c(n1)C(F)(F)CCC2 : 0.52

---

test system: HepG2 cells; assay: Inhibition of production of fructose-1-phosphate induced by D-Fructose in HepG2 cells (LC-MS); assay type: cell-based; conditions: Homo sapiens, 30 min compound pre-incubation, D-Fructose 3 hours
Reported EC50 values for the following molecules.
metric.name: EC50 (nM)

CC1C(F)CN1c1nc(N2C[C@@H]3[C@@H](CC(=O)O)[C@@H]3C2)c2c(n1)C(F)(F)CC2 (stereo partly drawn) : 39
C[C@H]1CCN1c1nc(N2C[C@@H]3[C@@H](CC(=O)O)[C@@H]3C2)c2c(n1)C(F)(F)CCC2 : 14.5
CC1N(c2nc(N3C[C@@H]4[C@@H](CC(=O)O)[C@@H]4C3)c3c(n2)C(F)(F)CCC3)CC1(F)F (stereo partly drawn) : 11.8
C[C@H]1CCN1c1nc(N2C[C@@H]3[C@@H](CC(=O)O)[C@@H]3C2)c2c(n1)C(F)(F)CC2 : 21.9
CC1C(F)CN1c1nc(N2C[C@@H]3[C@@H](CC(=O)O)[C@@H]3C2)c2c(n1)C(F)(F)CCC2 (stereo partly drawn) : 7.3
C[C@H]1N(c2nc(N3C[C@@H]4[C@@H](CC(=O)O)[C@@H]4C3)c3c(n2)C(F)(F)CCC3)CC1(F)F (single isomer, unassigned) : 18.2
